assay: yeast display, Sf9 membrane polyspecificity reagent, FACS + sequencing; frameworks hold sequencing errors
Reported Property: polyreactivity (PSR sort gate)

Some sequences with known polyreactivity (PSR sort gate) results, for comparison:
[
  {
    "Residue String": "QVQLVESGGGLVQAGGSLRLSCAASGSIFGWYAMGWYRQAPGKERELVAAIDSATSTYYADSVKGRFTISRDNAKNTVYLQKNSLKPEDTAVYYCAVYSWWIDAEYDYWGQGSQVTVSS",
    "Observed Result": "low polyreactivity"
  },
  {
    "Residue String": "QVQLVESGGGLVQAGGSLRLSCAASRYIFVRYAMGWYRQAPGKERELVAPNNSSGGRTYYAHSVKGRFTISRDNAKNTVYLQMNSLKQEDTAVYYCAAYGYYRSGYRALEGYWGQGTQVTVSS",
    "Observed Result": "high polyreactivity"
  },
  {
    "Residue String": "QVQLVESGGGLVQAGGSLRLSCAASGFTFSRYAMGWYRQAPGKERELVAAITRRGGRTYYADSVKGRFTISRDNAKNTVFLQMNSLKPEDTAVYYCITDAYRLGYDYWGQGTQVTVSS",
    "Observed Result": "high polyreactivity"
  },
  {
    "Residue String": "QVQLVESGGGIVQAGGSLRLSCAASGNTFNFYAMGWYRQAPGKERELVASITSGGGTNYADSVKGRFTISRDNAKNTVYLQMNSLKPEDTAVYYCADQFYYHFRYHFDWGLGTQVTVSS",
    "Observed Result": "low polyreactivity"
  },
  {
    "Residue String": "QVQLVESGGGLVQAGGSLRLSCAASGRIFWANTMGWYRQAPGKERELVAAITYSGDSTYYADSVKGRFTISRDNAKNTVYLQMNSLKPEDTAVYYCNAVPSKFSWAVYRGQYDYDYWGQGTQVTVSS",
    "Observed Result": "low polyreactivity"
  }
]

Per the record, `QVQLVESGGGLVQAGGSLRLSCAASGSSFGTYAMGWYRQAPGKERELVAAISSSVGSTYYADSVKGRFTISRDNATNTVYLQMNSLKPEDTAVYYCAVEQEDFWYPYLYDYWGQGTQVTVSS` has polyreactivity (PSR sort gate) of high polyreactivity

For reference, reported polyreactivity (PSR sort gate) for `QVQLVDSGAGLVQAGGSLRLICAASGSIFPYYAMGWYRQAPGKERELVAGISNGDSTNYADSVKGRFTISGDNAKNTVYLQINSLKPEDTAVYYCSTVLPGGRYYGPYDFWGQGTQVTVSS` stands at low polyreactivity

`QVQLVESGGGFVQAGGSLRLSCAASGRIFPGYAKGWYRQAPGKERELVAAISASGGSTYYADSVKGRFTISRDNAKNTVYLQMNSLKPEDTAVYYCNAVYRRYEYWGQGTQVTVSS` yielded polyreactivity (PSR sort gate) of high polyreactivity

Record summary for `QVQLVESGGGLVQAGGSLRLSCAASGSTLYYYAMGWYRQAPGKERELVASITKSGASTYYADSVKGRFTISRDNAKNTVYLLMNSLKPEDTAVYYCAADVGAIYDNAENGYWGQGTQVTVSS` : reported polyreactivity (PSR sort gate) = low polyreactivity

Sample `QVQLVESGGGLDQAGGSLRLSCAASGSIFESYAMGWYRQAPGKERELVAAITKRGGSTYYADSVKGRFTISRDNAKNTVYLQMNRLKPEDTAVYYCNASWPGIGPIYDYWGQGTQVTVSS` ; polyreactivity (PSR sort gate) observed: low polyreactivity
